Data provenance: the RNAGym collection of RNA variant scans (doi:10.1101/gad.245936.114)

B1: tRNA (parent)
chain: CUCUCGGUAGCCAAGUUGGUUUAAGGCGCAAGACUUUAAUUUAUCACUACGAAAUCUUGAGAUCGGGCGUUCGACUCGCCCCCGGGAGAUUUUUUCCUCGAGCAA

Variants of: B1
Experiment: nonsense suppression (GFP-seq) (ratio to wild type); higher = more function; SUP4oc tRNA, yeast GFP reporter sort-seq
Variants at the floor of the assay were thinned out.
Can you tell me nonsense suppression for the items I'm about to list?

Kindly note the recorded nonsense suppression for U58C G69A , which is ≤ 0.026

What the record says about A74C U76C G86A A89G : nonsense suppression is ≤ 0.026

// nonsense suppression value for A14G G19A A31U G66C A74C G78U : ≤ 0.026

Lab note: A62C G67A gave nonsense suppression of ≤ 0.026

Query G15U C68U G78C C82G G84A yields nonsense suppression of ≤ 0.026

Reported nonsense suppression of U4C U22G G26U G73C G78C : ≤ 0.026

Documented nonsense suppression of G7C A31C G32C : ≤ 0.026

nonsense suppression measured on C5A G15A A33G = ≤ 0.026

Quick note, nonsense suppression for U55A U76A G86A landed at ≤ 0.026

Query U22C A31G A74C yields nonsense suppression of ≤ 0.026

# variant U58A U70C A74G ; its nonsense suppression = ≤ 0.026

Entry G26C U55A , nonsense suppression reported as ≤ 0.026

Just so you know, measured nonsense suppression for A30U C82G came out at ≤ 0.026
